// reported TGI for each item listed
System: SF-268 CNS
method: NCI tumour cell line growth inhibition, 48 h

molecule: COc1ccc2nc3cccc([N+](=O)[O-])c3c(NCCO)c2c1
systemTested: SF-268 CNS
TGI: 0.111 µM
//
molecule: CN1C2(c3ccccc3)c3c(-c4ccccc4)sc(-c4ccccc4)c3C1(c1ccccc1)C1C(=O)N(c3ccccc3)C(=O)C12 (stereo unspecified)
systemTested: SF-268 CNS
TGI: > 100 µM
//
molecule: O=c1[nH]c(=O)n(C2CC(O)C(CO)O2)cc1OCCCc1ccccc1 (stereo unspecified)
systemTested: SF-268 CNS
TGI: > 100 µM
//
molecule: COc1ccc(/C=C2\CCCCC2=O)cc1
systemTested: SF-268 CNS
TGI: > 100 µM
//
molecule: COc1cc(C2C(Cl)C(=O)N2NC(=O)c2ccccc2O)ccc1O (stereo unspecified)
systemTested: SF-268 CNS
TGI: > 100 µM
//
molecule: COc1ccc(N2C(=O)C3ON(C(C(N)=O)c4ccccc4)C(c4ccc(-c5ccccc5)cc4)C3C2=O)cc1 (stereo unspecified)
systemTested: SF-268 CNS
TGI: > 50 µM
//
molecule: COc1ccc(C2C3C(=O)C=CC(=O)C3[C@@H]2C)cc1OC (stereo partly specified)
systemTested: SF-268 CNS
TGI: > 100 µM
//
molecule: COc1cccc(C2C(C#N)=C(N)Oc3cc(N)ccc32)c1 (stereo unspecified)
systemTested: SF-268 CNS
TGI: > 100 µM
//
molecule: Cc1ccc(C2NC(=S)NC3=C2CCOc2c3ccc3ccccc23)cc1 (stereo unspecified)
systemTested: SF-268 CNS
TGI: > 100 µM
//
molecule: CCCCC(C)C1CCC2(C)C=CC(=O)C(C)=C2C1O (stereo unspecified)
systemTested: SF-268 CNS
TGI: > 100 µM
//
molecule: Cc1ccc(S(=O)(=O)NN=C2CCCCCCCCCCC2)cc1
systemTested: SF-268 CNS
TGI: > 100 µM
//
molecule: C=C(C)[C@@H]1CC[C@]2(C)[C@H](C(=O)C=C3[C@@H]4C[C@](C)(C(=O)N5CCN(C)CC5)CC[C@]4(C)CC[C@]32C)[C@@]1(C)CCC#N
systemTested: SF-268 CNS
TGI: 15.2 µM
//
molecule: CC1C[C@H](OC(N)=O)C(C)CC1=O (stereo partly specified)
systemTested: SF-268 CNS
TGI: > 100 µM
//
molecule: CC(C)(C)c1ccc(-c2nc3ccc([N+](=O)[O-])cc3c(=O)o2)cc1
systemTested: SF-268 CNS
TGI: > 100 µM
//
molecule: C[C@]12CC[C@@H]3c4cc(OCC(F)(F)F)c(O)cc4C(=O)C[C@H]3[C@@H]1CC[C@@H]2O
systemTested: SF-268 CNS
TGI: > 100 µM
//
molecule: CC(=O)N1CC(Nc2ccc(OC(F)(F)F)cc2)=CC1=O
systemTested: SF-268 CNS
TGI: > 100 µM
//
molecule: CCCCCNc1nonc1N
systemTested: SF-268 CNS
TGI: > 100 µM
//
molecule: CS(=O)CCCCCN=C=S (stereo unspecified)
systemTested: SF-268 CNS
TGI: 17.4 µM
//
molecule: COc1cc(C2c3cc4c(cc3OC(Nc3ccc(C(=O)O)cc3)C2C)OCO4)cc(OC)c1OC (stereo unspecified)
systemTested: SF-268 CNS
TGI: > 39.1 µM
//
molecule: Cc1cccc(Oc2nccc(-c3c(-c4ccc(F)cc4)ncn3C3CCNCC3)n2)c1C
systemTested: SF-268 CNS
TGI: > 25 µM
//
molecule: COC(=O)C1(Cc2ccc3c(c2)CCC3)Cc2ccc3c(c2C1O)CCC3 (stereo unspecified)
systemTested: SF-268 CNS
TGI: 69.8 µM

###

Test system: UO-31 renal
Classes used: yes (1) (active), no (0) (inactive)

compound: Cc1cc2cc3cc(C)c(N(C)C)cc3nc2cc1N(C)C
qualitativeLabel: no (0)
--
compound: C=C1C[C@](OC)([C@H](O)C(=O)N[C@@H](OC)[C@@H]2C[C@@H](O)C(C)(C)[C@@H](C[C@@H](COC)OC)O2)O[C@H](C)[C@@H]1C
qualitativeLabel: yes (1)
--
compound: COc1cc(NCCCCN=C(N)NC(N)=NC(C)C)c2ncccc2c1
qualitativeLabel: no (0)
--
compound: CC(C)[C@@]12C[C@@H](OC(=O)[C@H]3CO3)[C@@](C)(O1)[C@@H]1CC[C@@H](C)[C@H]1[C@@H]2OC(=O)/C=C/c1ccccc1
qualitativeLabel: yes (1)
--
compound: N#Cc1c(-c2ccc(Cl)cc2)n(O)c2ccccc12
qualitativeLabel: no (0)
--
compound: ClC1=C(Cl)C(Cl)=C(Cl)C1=C/C=C/c1ccccc1
qualitativeLabel: yes (1)
--
compound: NC(=NCCCOc1ccc(Cl)cc1)Nc1ccc(Cl)cc1
qualitativeLabel: no (0)
--
compound: COc1cccc(C2C(C#N)=C(N)Oc3cc(N)ccc32)c1 (centres undefined)
qualitativeLabel: no (0)
--
compound: C=C(C)[C@@H]1CC[C@]2(C)[C@H](C(=O)C=C3[C@@H]4C[C@](C)(C(=O)N5CCN(C)CC5)CC[C@]4(C)CC[C@]32C)[C@@]1(C)CCC#N
qualitativeLabel: no (0)
--
compound: O=[N+]([O-])c1ccc(-c2nc(-c3ccccc3)c(-c3ccccc3)n2-c2ccccc2)cc1
qualitativeLabel: no (0)
--
compound: CC(C)CCOc1ccc(-c2n[nH]c(C(F)(F)F)c2-c2cncc(C#N)c2)c(O)c1
qualitativeLabel: no (0)
--
compound: CC(=O)Nc1ccc(Sc2ccc([N+](=O)[O-])o2)cc1
qualitativeLabel: no (0)
--
compound: COc1cc2c(cc1OCCOS(C)(=O)=O)N=C[C@@H]1CCCN1C2=O
qualitativeLabel: no (0)
--
compound: CN(C)c1ccc(N=Cc2c([O-])ccc3ccccc23)cc1.[C-]#[O+].[C-]#[O+].[Ir]
qualitativeLabel: no (0)

###

Examples of molecules with documented TGI follow.
System: SF-539 CNS
method: NCI tumour cell line growth inhibition, 48 h
measurementName: TGI

molecule: COC(=O)c1ccc2c(c1)nc(-c1cc3ccccc3[nH]c1=O)n2-c1cc(C(C)(C)C)[nH]n1
systemTested: SF-539 CNS
reportedMeasurement: > 100 µM
//
molecule: Cc1ccc(NC(=O)NC(=O)c2ccc([N+](=O)[O-])cc2[N+](=O)[O-])cc1Oc1ncc(Cl)cn1
systemTested: SF-539 CNS
reportedMeasurement: 0.91 µM
//
molecule: COc1ccc2oc3c4c2c1CCC4CCC3=O (configuration not stated)
systemTested: SF-539 CNS
reportedMeasurement: > 100 µM
//
molecule: CCOC(=O)C(=O)Nc1ccc(C)cc1C
systemTested: SF-539 CNS
reportedMeasurement: > 100 µM
//
molecule: COc1ccc(-c2csc(=Nc3ccccc3)n2CC(O)c2ccc([N+](=O)[O-])cc2)cc1 (configuration not stated)
systemTested: SF-539 CNS
reportedMeasurement: > 100 µM
//
molecule: O=[N+]([O-])c1ccc(C2=NOC(c3ccccc3F)N2C23CC4CC(CC(C4)C2)C3)cc1 (configuration not stated)
systemTested: SF-539 CNS
reportedMeasurement: > 100 µM
//
molecule: COc1cccc(NC(=S)Nn2c(C)nc3ccccc3c2=O)c1
systemTested: SF-539 CNS
reportedMeasurement: > 100 µM
//
molecule: CC(C)C1OC(=O)C=C1Sc1ccccc1 (configuration not stated)
systemTested: SF-539 CNS
reportedMeasurement: > 100 µM
//
molecule: Cn1c2c(c3ccccc31)C1CCCCC1C1C(=O)NC(=O)C21 (configuration not stated)
systemTested: SF-539 CNS
reportedMeasurement: > 100 µM
//
molecule: COc1ccccc1-n1c(-c2cc(O)ccc2C)cn2c3c(=O)[nH]c(=O)n(C)c3nc12
systemTested: SF-539 CNS
reportedMeasurement: > 100 µM
//
molecule: CCOc1ccc(/C(O)=C/c2nc3ccccc3nc2/C=C(\O)c2ccc(OCC)cc2)cc1
systemTested: SF-539 CNS
reportedMeasurement: > 100 µM
//
molecule: CCCN(CCCC(NC(C)=O)C(=O)NCc1ccccc1)C(=O)NC (configuration not stated)
systemTested: SF-539 CNS
reportedMeasurement: > 100 µM
//
molecule: Cc1c(CCOC=O)c(=O)[nH]c2nncn12
systemTested: SF-539 CNS
reportedMeasurement: > 100 µM
//
molecule: O=P(Oc1ccccc1)(Oc1ccccc1)Oc1c[nH]c2ccccc12
systemTested: SF-539 CNS
reportedMeasurement: 24 µM
//
molecule: O=C1C(Br)=CC2(C=C1Br)CCN=c1c2c(O)c2nc3ccccc3c3ccnc1c23
systemTested: SF-539 CNS
reportedMeasurement: 6.11 µM
//
molecule: CCc1n[nH]c(=O)n1/N=C/c1ccccc1Cl
systemTested: SF-539 CNS
reportedMeasurement: > 100 µM
//
molecule: CCn1c2c(n(CC)c1=S)-c1c(n(CC)c(=S)n1CC)SSSS2
systemTested: SF-539 CNS
reportedMeasurement: 28.2 µM
//
molecule: COC(=O)C1=C(C(=O)OC)C2(OC(C)=O)c3ccccc3-c3ccccc3C12 (configuration not stated)
systemTested: SF-539 CNS
reportedMeasurement: 31.6 µM
//
molecule: C[C@]12CCC[C@H](Cl)C1(O)C[C@H](C(=O)O)CC2 (some centres not stated)
systemTested: SF-539 CNS
reportedMeasurement: > 100 µM
//
molecule: Cc1cn(C2CCC(/C=N\O)O2)c(=O)[nH]c1=O (configuration not stated)
systemTested: SF-539 CNS
reportedMeasurement: > 100 µM
//
molecule: COc1ccc(/C(Cl)=C(\C=O)c2ccc([N+](=O)[O-])cc2)cc1OC
systemTested: SF-539 CNS
reportedMeasurement: 30.8 µM
//
molecule: CC1C[C@H](OC(N)=O)C(C)CC1=O (some centres not stated)
systemTested: SF-539 CNS
reportedMeasurement: > 100 µM
